# test-method-notes: Olmesartan blood concentration/AUC after 7-day versus single-day dosing
# Assay type: in vivo, Korean healthy males
# experimental-parameters: male, human, blood, oral, Time 8 hrs; drug taken only one day; read-out: Blood concentration (ng/mL)/Non-Compliance-1X
measurement-name: concentration at 8 h (ng/mL)
Value expressed in ng/mL; do not type the unit.

Give me measured concentration at 8 h, please, for this molecule: CCCc1nc(C(C)(C)O)c(C(=O)O)n1Cc1ccc(-c2ccccc2-c2nnn[nH]2)cc1 [olmesartan] 289

----------
# test-method-notes: Olmesartan blood concentration/AUC after 7-day versus single-day dosing
# Format: in vivo, Korean healthy males
# experimental-parameters: male, human, blood, oral, 40 mg, Time 12 hrs; dosing every 24 hours for 7 days; read-out: Blood concentration (ng/mL)/Compliance-7X
measurement-name: concentration at 12 h (ng/mL)
Field: numeric (ng/mL). Do not append units.

Tell me measured concentration at 12 h for "CCCc1nc(C(C)(C)O)c(C(=O)O)n1Cc1ccc(-c2ccccc2-c2nnn[nH]2)cc1" please. 193
